Test: Toxicity in rats, oral administration: dose at which toxic symptoms (changes in the initial ECG, cyanosis or cramp) occur
Assay type: in vivo, rat (Sprague Dawley)
Details: rat, in vivo, po

compound	TD50 / mg/kg
CCN(CC)CCNC(=O)c1ccc(N)cc1 [Procainamide, procainamide, reference compound]	1000

---

Assay: in vivo
Type: in vivo, rat (Sprague Dawley)
Conditions: rat, in vivo; rats, oral; decimal-geometric dosage progression; read-out: Maximum effect: Dose (maximum tolerated dose)
endpoint label: MTD (mg/kg)

compound	reported value
COC(=O)c1sccc1OCC(O)CN1CCC(O)(c2ccccc2)CC1 (stereo not shown)	215
